Test system: myosin ATPase, Porcine Atria myofibrils
Assay: Myofibril ATPase assay, porcine atria myofibrils
Type: biochemical
Settings: concentration required to reduce myosin ATP-ase activity by 25%; Porcine Atria Prep pCa 25 GEOM_MEAN
READOUT_TYPE: Porcine Atria EC25 (Y75 value) (µM)

INSERT INTO results (molecule, measurement_target, observed_measurement) VALUES
  ('C[C@H](NC(=O)[C@H](C)n1c(=O)[nH]c2ccccc2c1=O)c1ccc(F)cc1F (single isomer, unassigned)', 'myosin ATPase, Porcine Atria myofibrils', 1.175),
  ('Cc1cc(C#N)cnc1[C@@H](C)NC(=O)Cn1c(=O)[nH]c2ccc(F)c(F)c2c1=O (single isomer, unassigned)', 'myosin ATPase, Porcine Atria myofibrils', 0.048),
  ('C[C@H](NC(=O)[C@H](C)n1c(=O)[nH]c2ccc(F)c(F)c2c1=O)c1ccc(F)cc1F', 'myosin ATPase, Porcine Atria myofibrils', 0.185),
  ('CC(NC(=O)Cn1c(=O)[nH]c2ccccc2c1=O)c1ccc(F)cn1 (centres unmarked)', 'myosin ATPase, Porcine Atria myofibrils', 100),
  ('C[C@H](NC(=O)Cn1c(=O)[nH]c2ccc(F)c(C#N)c2c1=O)c1ncc(C#N)cc1F (single isomer, unassigned)', 'myosin ATPase, Porcine Atria myofibrils', 0.11);

I. Cc1c(F)ccc2[nH]c(=O)n(CC(=O)N[C@@H]3COc4cc(C#N)cnc43)c(=O)c12 (single isomer, unassigned)
II. Cc1ccc2[nH]c(=O)n(CC(=O)N[C@@H](C)c3ccc(F)cc3F)c(=O)c2c1
III. CC(NC(=O)Cn1c(=O)[nH]c2ccccc2c1=O)c1cc(F)ccc1N(C)C (centres unmarked)
IV. CC(NC(=O)Cn1c(=O)[nH]c2ccccc2c1=O)c1ncc(F)cc1F (centres unmarked)
### Prompt Provide the items ranked by increasing Porcine Atria EC25 (Y75 value). Could you list the labels in the order requested?
### Response I, II, IV, III

a. C[C@H](NC(=O)Cn1c(=O)[nH]c2ccc(F)c(F)c2c1=O)c1ccc(F)cc1F
b. C[C@@H](NC(=O)C1(n2c(=O)[nH]c3ccc(F)c(F)c3c2=O)CC1)c1ncc(C#N)cc1F (single isomer, unassigned)
### Prompt Hi! Which is lower in terms of Porcine Atria EC25 (Y75 value), the first one a or the second one b ? Indicate which entry you chose by stating its label.
### Response a

P. CN1CC(NC(=O)Cn2c(=O)[nH]c3ccccc3c2=O)c2c(F)cc(F)cc2C1=O (centres unmarked)
Q. C[C@H](NC(=O)Cn1c(=O)[nH]c2ccc(F)c(F)c2c1=O)c1ccc(C#N)nn1 (single isomer, unassigned)
### Prompt Hi! Which is lower in terms of Porcine Atria EC25 (Y75 value), the first one P or the second one Q ? Indicate which entry you chose by stating its label.
### Response Q

P. C[C@H](NC(=O)Cn1c(=O)[nH]c2cnccc2c1=O)c1ccc(F)cc1F
Q. C[C@H](NC(=O)Cn1c(=O)[nH]c2ccc(F)c(F)c2c1=O)c1ccc(C#N)cn1 (single isomer, unassigned)
R. O=C(Cn1c(=O)[nH]c2ccccc2c1=O)NC(CO)c1ccc(F)cc1F (centres unmarked)
S. Cc1c(F)ccc2[nH]c(=O)n(CC(=O)N[C@H](C)c3ccc(C#N)cn3)c(=O)c12 (single isomer, unassigned)
T. Cc1nccc2[nH]c(=O)n(CC(=O)N[C@H](C)c3ncc(C#N)cc3F)c(=O)c12 (single isomer, unassigned)
### Prompt Provide the items ranked by increasing Porcine Atria EC25 (Y75 value). Could you list the labels in the order requested?
### Response S, Q, R, T, P
